study.target: His-BIR2-3 (125-356, C202A/C213G, XIAP) (Homo sapiens, UniProt P98170, C202A/C213G)
Construct: additions of His-BIR2-3 (125-356, C202A/C213G, XIAP), fluorescein labeled dimeric SMAC peptide
Sequence (P98170 125-356 C202A/C213G): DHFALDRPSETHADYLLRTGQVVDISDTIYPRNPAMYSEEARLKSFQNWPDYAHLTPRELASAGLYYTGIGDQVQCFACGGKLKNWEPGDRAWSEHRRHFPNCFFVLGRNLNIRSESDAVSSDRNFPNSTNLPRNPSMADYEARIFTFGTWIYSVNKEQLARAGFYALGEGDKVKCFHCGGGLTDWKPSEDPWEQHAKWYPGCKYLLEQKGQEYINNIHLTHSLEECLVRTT
protocol.notes: XIAP-BIR2-3 Dimeric SMAC Peptide Homogeneous Time Resolved Fluorescence (HTRF) Assay
condition.context: fluorescein labeled dimeric SMAC peptide
measured.endpoint: IC50 (nM)

{"columns": ["compound", "value.measured"],
 "data": [
  ["CNC(C)C(=O)NC(C(=O)N1CC2CC1C(=O)NC(Cc1ccc3ccccc3c1)C(=O)NC(C(=O)O)Cc1ccc(cc1)OCC=CCOC1CC(C(=O)NC(Cc3ccc4ccccc4c3)C(=O)NC(C(=O)O)CCCCC(=O)N2)N(C(=O)C(NC(=O)C(C)NC)C(C)(C)C)C1)C(C)(C)C (centres unmarked) [Example 31]", 2.1],
  ["CN[C@@H](C)C(=O)N[C@H](C(=O)N1C[C@H]2C/C=C/COc3ccc(cc3)C[C@@H](C(=O)NS(=O)(=O)C3CC3)NC(=O)[C@H](Cc3ccc4ccccc4c3)NC(=O)[C@@H]3C[C@@H](CN3C(=O)[C@@H](NC(=O)[C@H](C)NC)C(C)(C)C)n3cc(nn3)COc3ccc(cc3)C[C@@H](C(=O)O)NC(=O)[C@H](Cc3ccc4ccccc4c3)NC(=O)[C@@H]1C2)C(C)(C)C [Example 25]", 0.2]
]}

====

study.target: His-BIR2-3 (125-356, C202A/C213G, XIAP) (Homo sapiens, UniProt P98170, C202A/C213G)
Construct: additions of His-BIR2-3 (125-356, C202A/C213G, XIAP), fluorescein labeled dimeric SMAC peptide
protocol.notes: XIAP-BIR2-3 Dimeric SMAC Peptide Homogeneous Time Resolved Fluorescence (HTRF) Assay
condition.context: fluorescein labeled dimeric SMAC peptide

{"columns": ["molecule", "IC50 (nM)"],
 "data": [
  ["CN[C@@H](C)C(=O)N[C@H](C(=O)N1C[C@@H]2C[C@H]1C(=O)N[C@@H](Cc1ccc3ccccc3c1)C(=O)N[C@H](C(=O)O)Cc1ccc(cc1)OC/C=C/CO[C@H]1C[C@@H](C(=O)N[C@@H](C(c3ccccc3)c3ccccc3)C(=O)N[C@H](C(=O)NS(=O)(=O)C3CC3)Cc3ccc(cc3)OCc3cn2nn3)N(C(=O)[C@@H](NC(=O)[C@H](C)NC)C(C)(C)C)C1)C(C)(C)C", 8.7],
  ["CN[C@@H](C)C(=O)N[C@H](C(=O)N1C[C@@H]2C[C@H]1C(=O)N[C@@H](Cc1ccc3ccccc3c1)C(=O)N[C@H](C(=O)O)Cc1ccc(cc1)OC/C=C/CO[C@H]1C[C@@H](C(=O)N[C@@H](c3ccccc3)C(=O)N[C@H](C(=O)O)Cc3ccc(cc3)C(=O)N2)N(C(=O)[C@@H](NC(=O)[C@H](C)NC)C(C)(C)C)C1)C(C)(C)C [Example 53]", 2.5],
  ["CN[C@@H](C)C(=O)N[C@H](C(=O)N[C@H]1C/C=C/COc2ccc(cc2)C[C@H](C(=O)O)NC(=O)[C@H](Cc2ccc3ccccc3c2)NC(=O)[C@@H]2[C@@H](CCN2C(=O)[C@@H](NC(=O)[C@H](C)NC)C(C)(C)C)OCc2cn(nn2)CC[C@@H](C(=O)OC)NC(=O)[C@H](Cc2ccc3ccccc3c2)NC1=O)C(C)(C)C", 2.6]
]}

====

study.target: His-BIR3 (241-356, XIAP) (Homo sapiens, UniProt P98170)
Construct: additions of His-BIR3 (241-356, XIAP), fluorescein labeled SMAC peptide
Sequence (P98170 241-356): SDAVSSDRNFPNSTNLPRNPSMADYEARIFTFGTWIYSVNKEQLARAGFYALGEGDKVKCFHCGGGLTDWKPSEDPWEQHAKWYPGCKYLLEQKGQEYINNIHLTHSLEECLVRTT
protocol.notes: XIAP-BIR3/SMAC Homogeneous Time Resolved Fluorescence (HTRF) Assay
Assay type: binding
condition.context: fluorescein labeled SMAC peptide
pIC50: −log10 of the molar value.
measured.endpoint: pIC50

{"columns": ["compound", "measured.endpoint", "value.measured"],
 "data": [
  ["CN[C@@H](C)C(=O)N[C@H](C(=O)N1CC[C@H]2OC/C=C/COc3ccc(cc3)C[C@@H](C(=O)O)NC(=O)[C@H](Cc3ccc4ccccc4c3)NC(=O)[C@@H]3[C@@H](CCN3C(=O)[C@@H](NC(=O)[C@H](C)NC)C(C)(C)C)OCc3cn(nn3)[C@H](C(=O)O)CCNC(=O)[C@H](Cc3ccc4ccccc4c3)NC(=O)[C@H]21)C(C)(C)C [Example 14]", "pIC50", 7.77],
  ["CN[C@@H](C)C(=O)N[C@H](C(=O)N1C[C@@H]2C[C@H]1C(=O)N[C@@H](Cc1ccc3ccccc3c1)C(=O)N[C@H](C(=O)NS(=O)(=O)C1CC1)Cc1ccc(cc1)OCc1cn(nn1)[C@H]1C[C@@H](C(=O)N[C@@H](Cc3ccc4ccccc4c3)C(=O)N[C@H](C(=O)O)Cc3ccc(cc3)OC/C=C/CO2)N(C(=O)[C@@H](NC(=O)[C@H](C)NC)C(C)(C)C)C1)C1CCNCC1 [Example 110]", "pIC50", 8.00]
]}

====

study.target: N-His-Tb-BIR3(241-356, XIAP) (Homo sapiens)
Construct: additions of N-His-Tb-BIR3(241-356, XIAP), fluoresceinated modified SMAC peptide; Tb (meaning not explained; sits between His tag and BIR3) (N)
protocol.notes: XIAP-BIR3 SMAC Peptide Fluorescence Polarization Assay (FPA)
Format: binding
This listing pairs molecules with measured IC50.
measured.endpoint: IC50 (nM)

{"columns": ["given.smiles", "measured.endpoint", "value.measured"],
 "data": [
  ["CN[C@@H](C)C(=O)N[C@H](C(=O)N1C[C@@H]2C[C@H]1C(=O)N[C@@H](Cc1ccc3ccccc3c1)C(=O)N[C@H](C(=O)O)COC/C=C/CO[C@H]1C[C@@H](C(=O)N[C@@H](Cc3ccc4ccccc4c3)C(=O)N[C@H](C(=O)O)Cc3ccc(cc3)C(=O)N2)N(C(=O)[C@@H](NC(=O)[C@H](C)NC)C(C)(C)C)C1)C(C)(C)C", "IC50", 31.3],
  ["CN[C@@H](C)C(=O)N[C@H](C(=O)N1C[C@@H]2C[C@H]1C(=O)N[C@@H](Cc1ccc3ccccc3c1)C(=O)N[C@H](C(=O)O)Cc1ccc(cc1)OC/C=C/CO[C@H]1C[C@@H](C(=O)N[C@@H](Cc3ccc4ccccc4c3)C(=O)N[C@H](C(=O)O)CC(=O)N2)N(C(=O)[C@@H](NC(=O)[C@H](C)NC)C(C)(C)C)C1)C(C)(C)C", "IC50", 46.7],
  ["CN[C@@H](C)C(=O)N[C@H](C(=O)N1C[C@@H]2C[C@H]1C(=O)N[C@@H](Cc1ccc3ccccc3c1)C(=O)N[C@H](C(=O)O)COC/C=C/CO[C@H]1C[C@@H](C(=O)N[C@@H](Cc3ccc4ccccc4c3)C(=O)N[C@H](C(=O)O)CC(=O)N2)N(C(=O)[C@@H](NC(=O)[C@H](C)NC)C(C)(C)C)C1)C(C)(C)C", "IC50", 44]
]}

====

study.target: His-BIR3 (241-356, XIAP) (Homo sapiens)
Construct: additions of His-BIR3 (241-356, XIAP), fluorescein labeled SMAC peptide
protocol.notes: XIAP-BIR3/SMAC Homogeneous Time Resolved Fluorescence (HTRF) Assay
Assay type: binding
condition.context: fluorescein labeled SMAC peptide
Examples of compounds with documented IC50 follow.

{"columns": ["given.smiles", "display.unit", "IC50"],
 "data": [
  ["CC[C@H](NC(=O)[C@H](C)NC)C(=O)N1C[C@@H]2C[C@H]1C(=O)N[C@@H](Cc1ccc3ccccc3c1)C(=O)N[C@H](C(=O)NS(=O)(=O)C1CC1)Cc1ccc(cc1)OCc1cn(nn1)[C@H]1C[C@@H](C(=O)N[C@@H](Cc3ccc4ccccc4c3)C(=O)N[C@H](C(=O)O)Cc3ccc(cc3)OC/C=C/CO2)N(C(=O)[C@@H](NC(=O)[C@H](C)NC)C(C)(C)C)C1", "nM", 26.1],
  ["CN[C@@H](C)C(=O)N[C@H](C(=O)N1C[C@H]2CCCCOc3ccc(cc3)C[C@@H](C(=O)NS(=O)(=O)C3CC3)NC(=O)[C@H](Cc3ccc4ccccc4c3)NC(=O)[C@@H]3C[C@H](CCCCOc4ccc(cc4)C[C@@H](C(=O)O)NC(=O)[C@H](Cc4ccc5ccccc5c4)NC(=O)[C@@H]1C2)CN3C(=O)[C@@H](NC(=O)[C@H](C)NC)C(C)(C)C)C(C)(C)C", "nM", 5.9],
  ["CCCCCCCCCCCCS(=O)(=O)NC(=O)[C@@H]1Cc2ccc(cc2)OC/C=C/C[C@H]2C[C@@H](C(=O)N[C@@H](Cc3ccc4ccccc4c3)C(=O)N[C@H](C(=O)O)Cc3ccc(cc3)OCc3cn(nn3)[C@H]3C[C@@H](C(=O)N[C@@H](Cc4ccc5ccccc5c4)C(=O)N1)N(C(=O)[C@@H](NC(=O)[C@H](C)NC)C(C)(C)C)C3)N(C(=O)[C@@H](NC(=O)[C@H](C)NC)C(C)(C)C)C2", "nM", 34.2]
]}
